# Tested on: windgrass (Apera spica-venti)
# procedureSummary: Test B postemergence plant response
# Type: in vivo
# runParameters: Postemergence, 125 g ai/ha; visual rating after 13 to 15 days, scale 0 (no effect) to 100 (complete control)
Threshold check on Plant response rating, Windgrass: strictly below 40 is rule met; on or above 40 is rule not met.

For orientation, consider the following solved cases.
{"sampleSmiles": "Cc1ccc(-n2c(-c3ccccc3)ncc(C(=O)C3=C(O)CCCC3=O)c2=O)cc1", "answerLabel": "rule met"}
{"sampleSmiles": "Cn1c(-c2ccccc2)ncc(C(=O)C2=C(O)CCCC2=O)c1=O", "answerLabel": "rule met"}
{"sampleSmiles": "Cc1c(Cl)cccc1-n1c(-c2ccccc2)ncc(C(=O)C2=C(O)CCCC2=O)c1=O", "answerLabel": "rule not met"}
{"sampleSmiles": "Cc1ccccc1-c1ncc(C(=O)C2=C(O)CCCC2=O)c(=O)n1-c1ccccc1", "answerLabel": "rule met"}
{"sampleSmiles": "CCCCc1ncc(C(=O)C2=C(O)CCCC2=O)c(=O)n1-c1ccc(C)cc1", "answerLabel": "rule met"}

Qu. Bench note: check whether Cc1ccc(F)cc1-n1c(-c2ccccc2)ncc(C(=O)C2=C(O)CCCC2=O)c1=O shows Plant response rating, Windgrass below 40
Ans. rule not met

Qu. Quick check: Plant response rating, Windgrass of CCCCc1ncc(C(=O)C2=C(O)CCCC2=O)c(=O)n1-c1ccccc1 under 40?
Ans. rule not met

Qu. Consider O=C1CCCC(O)=C1C(=O)c1cnc(-c2ccccc2Br)n(-c2ccccc2)c1=O . Does its Plant response rating, Windgrass lie strictly below 40?
Ans. rule not met

Qu. Identify whether the molecule CCCn1c(-c2cccs2)ncc(C(=O)C2=C(O)CCCC2=O)c1=O records Plant response rating, Windgrass below 40.
Ans. rule met
